molecular target: RAF proto-oncogene serine/threonine-protein kinase (Homo sapiens, UniProt P04049)
Sequence (P04049 whole entry): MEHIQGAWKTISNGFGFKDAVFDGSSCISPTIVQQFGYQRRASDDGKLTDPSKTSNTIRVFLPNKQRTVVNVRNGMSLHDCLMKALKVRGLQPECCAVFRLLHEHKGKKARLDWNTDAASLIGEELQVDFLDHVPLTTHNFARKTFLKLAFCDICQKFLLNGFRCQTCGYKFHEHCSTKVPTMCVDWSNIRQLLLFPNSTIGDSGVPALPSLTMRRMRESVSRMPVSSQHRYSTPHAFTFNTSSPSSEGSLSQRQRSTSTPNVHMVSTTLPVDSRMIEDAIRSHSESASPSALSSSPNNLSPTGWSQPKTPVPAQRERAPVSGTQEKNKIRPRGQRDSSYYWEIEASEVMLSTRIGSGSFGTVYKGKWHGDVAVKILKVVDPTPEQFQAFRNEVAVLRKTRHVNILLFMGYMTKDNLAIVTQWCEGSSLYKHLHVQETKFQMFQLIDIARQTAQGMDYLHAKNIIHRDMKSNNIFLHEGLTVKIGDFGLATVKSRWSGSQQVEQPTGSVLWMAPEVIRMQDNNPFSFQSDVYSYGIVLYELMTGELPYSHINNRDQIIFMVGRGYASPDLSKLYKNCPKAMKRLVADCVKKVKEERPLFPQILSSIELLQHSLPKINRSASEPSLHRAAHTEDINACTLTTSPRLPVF
Parameter measured: pKd
Lab note — pKd values are minus log10 of concentrations in M.

Exercise: Output reported pKd of the molecule Cc1ccc(C(=O)NC2CC2)cc1-c1cc2cnn(-c3c(F)cccc3F)c2n(C)c1=O on RAF proto-oncogene serine/threonine-protein kinase (Homo sapiens, UniProt P04049).
Key: 5.96

---

molecular target: Cytochrome P450 3A4 (Homo sapiens, UniProt P08684); assay: Inhibition of CYP3A4 in human liver microsomes; assay type: ADME, Microsome
Sequence (P08684 whole entry): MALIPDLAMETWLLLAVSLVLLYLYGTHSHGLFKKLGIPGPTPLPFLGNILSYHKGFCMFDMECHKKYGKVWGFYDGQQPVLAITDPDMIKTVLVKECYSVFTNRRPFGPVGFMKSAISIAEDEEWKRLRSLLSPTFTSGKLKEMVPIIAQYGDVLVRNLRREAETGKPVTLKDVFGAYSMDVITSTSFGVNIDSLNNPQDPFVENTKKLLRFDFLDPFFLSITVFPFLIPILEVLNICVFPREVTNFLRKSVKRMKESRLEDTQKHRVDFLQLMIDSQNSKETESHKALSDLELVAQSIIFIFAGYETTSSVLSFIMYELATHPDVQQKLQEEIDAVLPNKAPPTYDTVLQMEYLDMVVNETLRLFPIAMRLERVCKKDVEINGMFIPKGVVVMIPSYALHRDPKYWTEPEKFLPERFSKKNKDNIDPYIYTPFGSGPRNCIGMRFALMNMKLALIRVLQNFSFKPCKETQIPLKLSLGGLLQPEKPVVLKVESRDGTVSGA
pIC50: −log10 of the molar value.
Parameter measured: pIC50

Exercise: Please indicate pIC50 recorded for Cc1ccc(C(=O)NC2CC2)cc1-c1cc2cnn(-c3c(F)cccc3F)c2n(C)c1=O
Key: < 4.60

---

Item-by-item account of Ki
target: Mitogen-activated protein kinase 14 (Homo sapiens, UniProt Q16539); test: Inhibition of human recombinant p38alpha-mediated […] phosphorylation after 1 hr by HTRF assay
Sequence (Q16539 whole entry): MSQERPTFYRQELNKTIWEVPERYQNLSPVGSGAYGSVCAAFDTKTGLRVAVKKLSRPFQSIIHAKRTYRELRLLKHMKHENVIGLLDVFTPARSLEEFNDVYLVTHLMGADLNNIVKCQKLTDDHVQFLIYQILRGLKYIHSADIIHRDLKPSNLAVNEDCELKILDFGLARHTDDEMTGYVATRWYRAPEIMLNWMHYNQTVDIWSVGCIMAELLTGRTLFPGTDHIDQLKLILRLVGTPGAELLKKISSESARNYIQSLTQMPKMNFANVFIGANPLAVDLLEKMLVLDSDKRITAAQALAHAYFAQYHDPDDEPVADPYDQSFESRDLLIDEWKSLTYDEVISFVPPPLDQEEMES

CNc1noc2c(-c3cc4cnn(-c5c(F)cccc5F)c4n(C)c3=O)c(C)ccc12; 2 nM
Cc1c(F)cc(C(=O)NC2CC2)cc1-c1cc2cnn(-c3c(F)cccc3F)c2n(C)c1=O; 0.8 nM

Then there is this compound:
Exercise: Output reported Ki of the compound Cc1ccc(C(=O)NC2CC2)cc1-c1cc2c(C)nn(-c3c(F)cccc3F)c2n(C)c1=O on Mitogen-activated protein kinase 14 (Homo sapiens, UniProt Q16539).
Key: 8 nM

---

experiment: Volume of distribution at steady state in Sprague-Dawley rat at 2 mg/kg, iv; type: ADME, organism-based; parameters: dose 2 mg/kg, route intravenous; conditions: in vivo, read-out: Vdss
Parameter measured: Vd (L/kg)
Quick note: give the figure in L/kg, leave out the unit.

Past entries and their recorded results:
Cc1ccc(C(=O)NC2CC2)cc1-c1cc2cnn(-c3cc(F)ccc3F)c2n(C)c1=O; 0.955
Cc1ccc(C(=O)NC2CC2)cc1-c1cc2cnn(-c3ccc(F)cc3F)c2n(C)c1=O; 1.69
Cc1ccc(C(N)=O)cc1-c1cc2cnn(-c3c(F)cccc3F)c2n(C)c1=O; 1.1

Exercise: Please indicate Vd recorded for Cc1ccc(C(=O)NC2CC2)cc1-c1cc2cnn(-c3c(F)cccc3F)c2n(C)c1=O
Key: 0.837

Exercise: Please indicate Vd recorded for Cn1c(=O)c(-c2cc(C(=O)NC3CC3)ccc2Cl)cc2cnn(-c3c(F)cccc3F)c21
Key: 1.47

Exercise: Please indicate Vd recorded for CNc1noc2c(-c3cc4cnn(-c5c(F)cccc5F)c4n(C)c3=O)c(C)ccc12
Key: 1.89

---

Item-by-item account of clearance
test: Clearance in Sprague-Dawley rat at 2 mg/kg, iv; assay type: ADME, organism-based; parameters: dose 2 mg/kg, route intravenous; conditions: in vivo
Quick note: give the figure in mL/min/kg, leave out the unit.

Exercise: Please indicate clearance recorded for Cc1ccc(C(=O)NC2CC2)cc1-c1cc2cnn(-c3c(F)cccc3F)c2n(C)c1=O
Key: 3.67

Exercise: Please indicate clearance recorded for CNc1noc2c(-c3cc4cnn(-c5c(F)cccc5F)c4n(C)c3=O)c(C)ccc12
Key: 17.6

Exercise: Please indicate clearance recorded for Cc1ccc(C(=O)NC2CC2)cc1-c1cc2cnn(-c3ccc(F)cc3F)c2n(C)c1=O
Key: 2.88

Exercise: Please indicate clearance recorded for Cc1ccc(C(N)=O)cc1-c1cc2cnn(-c3c(F)cccc3F)c2n(C)c1=O
Key: 5.2

Exercise: Please indicate clearance recorded for Cc1ccc(C(=O)NC2CC2)cc1-c1cc2cnn(-c3cc(F)ccc3F)c2n(C)c1=O
Key: 4.12

Exercise: Please indicate clearance recorded for Cn1c(=O)c(-c2cc(C(=O)NC3CC3)ccc2Cl)cc2cnn(-c3c(F)cccc3F)c21
Key: 2.75

All values here come from ChEMBL document CHEMBL1156338.
